Provenance of the data: patent US20240067632A1

// DC50 lookup, one value per entry
- TARGET OR TEST SYSTEM: WEE1 (Homo sapiens, UniProt P30291+Q96SW2)
- Construct: C-terminal ePL-tagged (DiscoverX, Fremont, CA) full-length WEE1 expression construct; expressed in transfected cells; host or cells: LentiX-HEK293T (Invitrogen), lentiviral transduction; co-expressing GSPT1-GN (G576N, lacking the first 158 amino acids)
- PROCEDURE DETAILS: WEE1-ePL degradation assay (LentiX-WEE1-ePL-GSPT1-ND cells, InCELL Hunter luminescence, 4 h)
- Type: cell-based
- ASSAY SETUP: 293T-LentiX WEE1-ePL cells, read-out: 293T-LentiX WEE1-ePL Degradation 4 hr (EC50)
Write the answer as a number in nM, unit excluded.

Data point: CO[C@H]1CC[C@@H](c2ccc3cc(CN4CC[C@H](Oc5ccc6c(c5)CN(C5CCC(=O)NC5=O)C6=O)C4)ccc3n2)C1 (some centres unmarked) ; DC50 = 3.2

Data point: O=C1CCC(N2Cc3cc(O[C@H]4CCN(Cc5ccc6ccc(=O)oc6c5)C4)ccc3C2=O)C(=O)N1 (some centres unmarked) ; DC50 = 28.8

Data point: CC1(C)CC(=O)N(c2ccc3cc(CN4CC[C@H](Oc5ccc6c(c5)CN(C5CCC(=O)NC5=O)C6=O)C4)ccc3n2)C1 (some centres unmarked) ; DC50 = 1.58

Data point: O=C1CCC(N2Cc3cc(O[C@H]4CCN(Cc5ccc6nc(CO[C@@H]7CCOC7)ccc6c5)C4)ccc3C2=O)C(=O)N1 (some centres unmarked) ; DC50 = 4.51

Data point: C[C@@H]1CN(Cc2cc(F)c3nc(C4CCOCC4)ccc3c2)C[C@H]1Oc1ccc2c(c1)CN(C1CCC(=O)NC1=O)C2=O (some centres unmarked) ; DC50 = 1.13

Data point: O=C1CC[C@H](N2Cc3cc(O[C@H]4CCN(Cc5ccc6nc(C7CCOCC7)ccc6c5)C4)ccc3C2=O)C(=O)N1 ; DC50 = 1.62

Data point: O=C1CC[C@H](N2Cc3cc(O[C@H]4CCN(Cc5cc(C6CC6)c6nc(N7CCOCC7)ncc6c5)C4)ccc3C2=O)C(=O)N1 ; DC50 = 2.5

Data point: O=C1CCC(N2Cc3cc(O[C@H]4CCN(Cc5ccc6nc(N7C[C@H]8C[C@@H](C7)O8)ccc6c5)C4)ccc3C2=O)C(=O)N1 (some centres unmarked) ; DC50 = 1.98
